# target-system: T1, recombinant human ROR1 extracellular domain (human, UniProt Q01973 30-406)
# T1 construct: biotinylated for the filter lifts; also called huROR1-ECD; human ROR1-ECD
# T1 sequence (Q01973 30-406 limits assumed): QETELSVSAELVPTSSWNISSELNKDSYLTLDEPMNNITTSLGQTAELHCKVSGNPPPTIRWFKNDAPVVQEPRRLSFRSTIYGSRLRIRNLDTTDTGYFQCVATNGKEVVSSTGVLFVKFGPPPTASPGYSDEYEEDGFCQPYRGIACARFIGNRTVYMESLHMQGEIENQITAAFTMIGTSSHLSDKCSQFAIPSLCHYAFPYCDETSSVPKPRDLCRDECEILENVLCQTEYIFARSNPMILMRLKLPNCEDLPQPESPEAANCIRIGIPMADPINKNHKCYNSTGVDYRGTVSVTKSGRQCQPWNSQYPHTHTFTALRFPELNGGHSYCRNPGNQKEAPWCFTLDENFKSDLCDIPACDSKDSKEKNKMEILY
# assay-explanation: ELISA, soluble Fab on coated huROR1-ECD
pKd: −log10 of the molar value.

# binder, pKd
rows = [
    ("Ab1 Fab variant L2 L70K (Fab, V domains shown, Fab; also called SGSTKQS) VH: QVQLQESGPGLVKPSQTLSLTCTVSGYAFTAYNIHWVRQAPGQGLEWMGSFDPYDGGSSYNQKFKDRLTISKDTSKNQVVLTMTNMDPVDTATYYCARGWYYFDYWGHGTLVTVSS VL: DIVMTQTPLSLPVTPGEPASISCRASKSISKYLAWYQQKPGQAPRLLIYSGSTKQSGIPPRFSGSGYGTDFTLTINNIESEDAAYYFCQQHDESPYTFGEGTKVEIK", 8.82),
    ("Ab1 Fab variant H1 Y39W (Fab, V domains shown, Fab) VH: QVQLQESGPGLVKPSQTLSLTCTVSGYAFTAWNIHWVRQAPGQGLEWMGSFDPYDGGSSYNQKFKDRLTISKDTSKNQVVLTMTNMDPVDTATYYCARGWYYFDYWGHGTLVTVSS VL: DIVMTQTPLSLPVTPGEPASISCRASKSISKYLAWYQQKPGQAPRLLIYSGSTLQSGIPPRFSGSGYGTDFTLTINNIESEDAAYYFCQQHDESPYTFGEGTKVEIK", 8.48),
    ("Ab1 Fab variant H2 G67R (Fab, V domains shown, Fab) VH: QVQLQESGPGLVKPSQTLSLTCTVSGYAFTAYNIHWVRQAPGQGLEWMGSFDPYDGRSSYNQKFKDRLTISKDTSKNQVVLTMTNMDPVDTATYYCARGWYYFDYWGHGTLVTVSS VL: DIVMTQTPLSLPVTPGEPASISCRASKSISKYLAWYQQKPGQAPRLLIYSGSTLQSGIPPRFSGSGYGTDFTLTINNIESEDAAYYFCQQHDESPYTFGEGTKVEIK", 8.77),
]
